Test system: Trypanosoma brucei rhodesiense, STIB 900 strain, trypomastigotes stage
Test Protocol: In vitro anti-trypanosomal activity (growth inhibition)
Assay type: cell-based
Run Conditions: Trypanosoma brucei; STIB 900 strain, trypomastigotes; average of two independent assays; read-out: IC50 T. b. rhod.
Reported Property: IC50 (µM)
The answer is to be given in µM; state only the numeric part.

Known results for molecules:
# Molecule, Result
measured = [
    ("COc1cccc2c(C(=O)C(=O)NCCCN(CCCCCCCCCCCCN(CCCNC(=O)C(=O)c3c[nH]c4c(OC)cccc34)C(=O)OC(C)(C)C)C(=O)OC(C)(C)C)c[nH]c12 [Compound 24]", 63),
    ("COc1ccc2[nH]cc(C(=O)C(=O)NCCCNCCCCCCCCNCCCNC(=O)C(=O)c3c[nH]c4ccc(OC)cc34)c2c1.O=C(O)C(F)(F)F.O=C(O)C(F)(F)F [Compound 26]", 0.78),
]

stdin: Respond only with IC50 recorded for COc1cccc2c(C(=O)C(=O)NCCCN(CCCCCCCCN(CCCNC(=O)C(=O)c3c[nH]c4c(OC)cccc34)C(=O)OC(C)(C)C)C(=O)OC(C)(C)C)c[nH]c12 [Compound 20]
stdout: 61
